B1: Zinc finger homeobox protein 3, residues 2147 to 2202; numbered along this chain, Q15911 (parent)
chain: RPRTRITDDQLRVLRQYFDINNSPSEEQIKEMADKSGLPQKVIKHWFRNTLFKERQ

variants of: B1; assay: abundance fitness (aPCA) (normalised: wild type 0, dead -1); higher = more abundant; growth selection in yeast, the domain comes from the species named; settings: Homo sapiens
# reported abundance fitness; entries follow

MUTATION_STRING | abundance fitness
F52E | -0.015
N21G | -0.153
R48C | -0.446
Q16S | 0.122
Q10G | -0.602
R5K | 0.093
I43M | -0.706
K41F | -0.274
D19H | -0.034
Q10W | -0.718
R48W | -0.306
D8S | 0.02
K44H | -0.131
Y17A | -0.165
V13Y | -0.037
R12N | -0.061
D34H | 0.061
Q10R | -0.605
E27V | 0.013
R12F | -0.193
K44W | -0.176
Y17I | -0.175
Q28M | -0.168
I6H | -0.241
L14I | -0.217
L11K | 0.095
I6G | -0.48
I20T | -0.052
I20H | -0.001
L38N | -1.15
I43L | -0.443
P2M | 0.171
R48Y | -0.413
L51R | -0.013
D8H | 0.026
S25M | -0.523
Q28K | -0.327
E54V | -0.159
D8Y | -0.215
L38C | -0.143
Q40T | 0.054
P39D | -0.015
T7M | -0.162
D9M | -0.082
I29R | -0.507
L11D | -0.182
N21V | -0.171
E26H | -0.001
K41P | -0.259
Y17N | -0.095
R55P | -0.343
R15W | -0.125
N22T | 0.079
R5C | 0.076
K35I | -0.329
L11A | -0.019
Q10E | -0.394
N21F | -0.421
K53P | -0.192
E27I | -0.05
V13I | 0.097
I20P | 0.036
R15G | -0.256
D8N | -0.211
D8Q | 0.061
N21P | -0.335
F18G | -0.263
K35Y | -0.357
R3M | 0.293
R5L | 0.143
A33D | -0.879
R15L | -0.244
G37Y | -0.424
P24I | -0.652
K53L | -0.163
R15H | 0.099
S23V | -0.216
N21D | -0.102
L11Q | -0.01
T50F | -0.341
P39I | -0.199
N22Y | -0.076
